Known inhibition of a selection of molecules
study system: Thromboxane A2 receptor (Homo sapiens)
Sequence (whole entry): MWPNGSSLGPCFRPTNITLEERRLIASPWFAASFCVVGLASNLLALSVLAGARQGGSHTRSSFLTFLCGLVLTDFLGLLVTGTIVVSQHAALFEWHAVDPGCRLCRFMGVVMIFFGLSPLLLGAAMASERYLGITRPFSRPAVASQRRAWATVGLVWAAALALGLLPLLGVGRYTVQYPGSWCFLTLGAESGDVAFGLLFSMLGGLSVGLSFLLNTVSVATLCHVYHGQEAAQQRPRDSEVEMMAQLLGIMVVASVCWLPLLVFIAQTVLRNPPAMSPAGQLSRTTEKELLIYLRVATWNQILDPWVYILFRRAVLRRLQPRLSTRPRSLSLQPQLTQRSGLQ
assay method text: Inhibitory effect against binding thromboxane A2 receptor on guinea pig platelets using [3H]U-46619 as radioligand at 1 uM concentration
condition label: Cavia porcellus, target entry is the homologue from another species
Kindly write the number and append the unit.

> print(dat)
                                   molecule  result
1  O=C(O)c1ccc2c(c1)C(SCCNS(=O)(=O)c1ccccc1)c1ccccc1CS2 (stereo not given)     99%
2  O=C(O)c1ccc2c(c1)C(SCC/N=C(\S)NCc1ccccc1)c1ccccc1CO2 (stereo not given)     96%
3  O=C(O)c1ccc2c(c1)C(SCCNC(=O)C1CCCCC1)c1ccccc1CO2 (stereo not given)     66%
4  O=C(O)c1ccc2c(c1)C(SCCNS(=O)(=O)/C=C/c1ccccc1)c1ccccc1CO2 (racemic)     97%
5  O=C(O)c1ccc2c(c1)C(SCCNS(=O)(=O)c1ccc(Cl)cc1)c1ccccc1CO2 (stereo not given)     94%

Fill in: inhibition on Thromboxane A2 receptor (Homo sapiens), entry Cc1ccc2c(c1)C(SCCNS(=O)(=O)c1ccccc1)c1ccccc1CO2 (stereo not given)
27%

Fill in: inhibition on Thromboxane A2 receptor (Homo sapiens), entry O=C(O)c1ccc2c(c1)C(SCCNS(=O)(=O)c1cccc([N+](=O)[O-])c1)c1ccccc1CO2 (stereo not given)
93%

Fill in: inhibition on Thromboxane A2 receptor (Homo sapiens), entry O=C(O)c1ccc2c(c1)C(SCCNS(=O)(=O)c1cccc3cccnc13)c1ccccc1CO2 (stereo not given)
90%

Fill in: inhibition on Thromboxane A2 receptor (Homo sapiens), entry O=C(O)c1ccc2c(c1)C(SCCNS(=O)(=O)c1cccs1)c1ccccc1CO2 (stereo not given)
99%

Fill in: inhibition on Thromboxane A2 receptor (Homo sapiens), entry COc1ccc(S(=O)(=O)NCCSC2c3ccccc3COc3ccc(C(=O)O)cc32)cc1 (stereo not given)
93%

Fill in: inhibition on Thromboxane A2 receptor (Homo sapiens), entry Cc1ccc(S(=O)(=O)NCCSC2c3ccccc3COc3ccc(C(=O)O)cc32)cc1 (stereo not given)
93%
